Can you tell me IC50 for the items I'm about to list?
Please reply with the bare figure in µM and do not write the unit itself.

Query block: Write down the reported IC50 of CC(C)c1cc(C(=O)N2Cc3ccccc3C2)c(O)c2nc[nH]c12 [Compound 21] , test system: Hsp90β (Homo sapiens, UniProt P08238).
Sequence (P08238 whole entry): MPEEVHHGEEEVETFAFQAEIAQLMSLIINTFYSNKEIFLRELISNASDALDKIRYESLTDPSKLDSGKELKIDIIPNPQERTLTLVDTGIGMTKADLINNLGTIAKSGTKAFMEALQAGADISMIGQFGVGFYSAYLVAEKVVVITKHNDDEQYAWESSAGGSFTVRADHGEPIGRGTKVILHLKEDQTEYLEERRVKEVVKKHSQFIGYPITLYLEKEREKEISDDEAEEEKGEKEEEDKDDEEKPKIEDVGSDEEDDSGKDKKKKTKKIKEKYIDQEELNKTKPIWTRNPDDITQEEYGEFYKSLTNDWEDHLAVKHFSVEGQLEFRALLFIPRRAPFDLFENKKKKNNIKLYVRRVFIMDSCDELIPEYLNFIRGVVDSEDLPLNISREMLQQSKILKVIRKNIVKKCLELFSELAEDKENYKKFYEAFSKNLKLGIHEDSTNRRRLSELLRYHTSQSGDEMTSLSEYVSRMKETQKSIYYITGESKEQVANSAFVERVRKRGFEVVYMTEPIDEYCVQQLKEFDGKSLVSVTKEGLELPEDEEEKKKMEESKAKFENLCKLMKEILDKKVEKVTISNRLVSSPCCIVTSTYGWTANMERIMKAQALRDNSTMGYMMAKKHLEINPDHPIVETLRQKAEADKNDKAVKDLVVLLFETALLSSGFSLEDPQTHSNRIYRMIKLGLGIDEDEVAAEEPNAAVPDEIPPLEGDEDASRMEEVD
Result block: 0.45

Query block: Write down the reported IC50 of CC(C)c1cc(C(=O)N2Cc3ccccc3C2)c(O)c2c1C(=O)C=C2 [Compound 50] , test system: Hsp90β (Homo sapiens, UniProt P08238).
Result block: 6.75

Query block: Write down the reported IC50 of CC(C)c1cc(C(=O)N2Cc3ccccc3C2)c(O)c2ccoc12 [Compound 5] , test system: Hsp90β (Homo sapiens, UniProt P08238).
Result block: 0.27

Query block: Write down the reported IC50 of CC(C)c1cc(C(=O)N2Cc3ccccc3C2)c(O)c2c1C(=O)C(C(F)(F)F)C2 (stereo not shown) [Compound 44] , test system: Hsp90β (Homo sapiens, UniProt P08238).
Result block: 19.6

Query block: Write down the reported IC50 of CC(C)c1cc(C(=O)N2Cc3ccccc3C2)c(O)c2c1C(=O)CC2 [Compound 29b] , test system: Hsp90β (Homo sapiens, UniProt P08238).
Result block: 0.15

Query block: Write down the reported IC50 of CC(C)c1cc(C(=O)N2Cc3ccccc3C2)c(O)c2c1C(=O)C(F)C2 (stereo not shown) [Compound 42] , test system: Hsp90β (Homo sapiens, UniProt P08238).
Result block: 0.34

Query block: Write down the reported IC50 of CC(C)c1cc(C(=O)N2Cc3ccccc3C2)c(O)c2c1CC=C2 [Compound 32a] , test system: Hsp90β (Homo sapiens, UniProt P08238).
Result block: 8.29

Query block: Write down the reported IC50 of CC(C)c1cc(C(=O)N2Cc3ccccc3C2)c(O)c2c1CCC2 [Compound 31] , test system: Hsp90β (Homo sapiens, UniProt P08238).
Result block: 5.23

Query block: Write down the reported IC50 of CC1Cc2c(O)c(C(=O)N3Cc4ccccc4C3)cc(C(C)C)c2C1=O (stereo not shown) [Compound 40] , test system: Hsp90β (Homo sapiens, UniProt P08238).
Result block: 8.83

Query block: Write down the reported IC50 of CC(C)c1cc(C(=O)N2Cc3ccccc3C2)c(O)c2c1C(=O)C(F)(F)C2 [Compound 43] , test system: Hsp90β (Homo sapiens, UniProt P08238).
Result block: 18.2

Query block: Write down the reported IC50 of CC(C)c1cc(C(=O)N2Cc3ccccc3C2)c(O)c2c1C=CC2 [Compound 32b] , test system: Hsp90β (Homo sapiens, UniProt P08238).
Result block: 1.86

----------
pIC50: −log10 of the molar value.
Can you tell me pIC50 for the items I'm about to list?

Query block: Write down the reported pIC50 of CC(C)c1cc(C(=O)N2Cc3ccccc3C2)c(O)c2c1CCC2 [Compound 31] , test system: Hsp90α (Homo sapiens).
Result block: < 4.00

Query block: Write down the reported pIC50 of CC(C)c1cc(C(=O)N2Cc3ccccc3C2)c(O)c2c1C(=O)CCC2 [Compound 59b] , test system: Hsp90α (Homo sapiens).
Result block: < 4.00

Query block: Write down the reported pIC50 of CC(C)c1cc(C(=O)N2Cc3ccccc3C2)c(O)c2c1C(=O)C(C)(C)C2 [Compound 41] , test system: Hsp90α (Homo sapiens).
Result block: < 4.00

Query block: Write down the reported pIC50 of C=C1Cc2c(O)c(C(=O)N3Cc4ccccc4C3)cc(C(C)C)c2C1=O [Compound 46] , test system: Hsp90α (Homo sapiens).
Result block: < 4.00

Query block: Write down the reported pIC50 of CC1Cc2c(O)c(C(=O)N3Cc4ccccc4C3)cc(C(C)C)c2C1=O (stereo not drawn) [Compound 40] , test system: Hsp90α (Homo sapiens).
Result block: < 4.00

Query block: Write down the reported pIC50 of CON=C1CCc2c(O)c(C(=O)N3Cc4ccccc4C3)cc(C(C)C)c21 [Compound 52] , test system: Hsp90α (Homo sapiens).
Result block: < 4.00

Query block: Write down the reported pIC50 of CC(C)c1cc(C(=O)N2Cc3ccccc3C2)c(O)c2c1C=CC2 [Compound 32b] , test system: Hsp90α (Homo sapiens).
Result block: < 4.00

Query block: Write down the reported pIC50 of CC(C)c1cc(C(=O)N2Cc3ccccc3C2)c(O)c2cc[nH]c12 [Compound 18] , test system: Hsp90α (Homo sapiens).
Result block: < 4.00

Query block: Write down the reported pIC50 of CC(C)c1cc(C(=O)N2Cc3ccccc3C2)c(O)c2c1C(=O)C=C2 [Compound 50] , test system: Hsp90α (Homo sapiens).
Result block: 4.37

----------
target: Hsp90β (Homo sapiens, UniProt P08238); assay: Fluorescence polarization; format: binding; settings: Hsp90β versus Hsp90α, from FP IC50 values
REPORTED_METRIC: Selectivity

Query block: Which value of Selectivity has been reported for CC(C)c1cc(C(=O)N2Cc3ccccc3C2)c(O)c2c1C(=O)C(C(F)(F)F)C2 (stereo not drawn) in the records?
Result block: >5

Query block: Which value of Selectivity has been reported for CC(C)c1cc(C(=O)N2Cc3ccccc3C2)c(O)c2c1CC=C2 [Compound 32a] in the records?
Result block: >12

Query block: Which value of Selectivity has been reported for CC(C)c1cc(C(=O)N2Cc3ccccc3C2)c(O)c2c1C=CC2 [Compound 32b] in the records?
Result block: > 53

Query block: Which value of Selectivity has been reported for CC1Cc2c(O)c(C(=O)N3Cc4ccccc4C3)cc(C(C)C)c2C1=O (stereo not drawn) in the records?
Result block: >11

Query block: Which value of Selectivity has been reported for CC(C)c1cc(C(=O)N2Cc3ccccc3C2)c(O)c2ccoc12 in the records?
Result block: > 370

Query block: Which value of Selectivity has been reported for CC(C)c1cc(C(=O)N2Cc3ccccc3C2)c(O)c2c1CCC2 in the records?
Result block: > 19.1

Query block: Which value of Selectivity has been reported for CC(C)c1cc(C(=O)N2Cc3ccccc3C2)c(O)c2c1C(=O)C(F)(F)C2 in the records?
Result block: >5

Query block: Which value of Selectivity has been reported for CC(C)c1cc(C(=O)N2Cc3ccccc3C2)c(O)c2c1C(=O)C(F)C2 (stereo not drawn) in the records?
Result block: 7.1

Query block: Which value of Selectivity has been reported for CC(C)c1cc(C(=O)N2Cc3ccccc3C2)c(O)c2nc[nH]c12 in the records?
Result block: 4.9

----------
pIC50: −log10 of the molar value.
REPORTED_METRIC: pIC50

Query block: Write down the reported pIC50 of CC(C)c1cc(C(=O)N2Cc3ccccc3C2)c(O)c2c1C(=O)CC2 [Compound 29b] , test system: Hsp90α (Homo sapiens, UniProt P07900).
Result block: 6.10

Query block: Write down the reported pIC50 of CC(C)c1cc(C(=O)N2Cc3ccccc3C2)c(O)c2c1CCCC2=O [Compound 59a] , test system: Hsp90α (Homo sapiens, UniProt P07900).
Result block: < 4.00

Query block: Write down the reported pIC50 of CC(C)c1cc(C(=O)N2Cc3ccccc3C2)c(O)c2c1C(=C(F)F)CC2 , test system: Hsp90α (Homo sapiens, UniProt P07900).
Result block: < 4.00

Query block: Write down the reported pIC50 of CC(C)c1cc(C(=O)N2Cc3ccccc3C2)c(O)c2c1C(=NO)CC2 , test system: Hsp90α (Homo sapiens, UniProt P07900).
Result block: < 4.00

Query block: Write down the reported pIC50 of CC(C)c1cc(C(=O)N2Cc3ccccc3C2)c(O)c2nc[nH]c12 , test system: Hsp90α (Homo sapiens, UniProt P07900).
Result block: 5.65

Query block: Write down the reported pIC50 of CC(C)c1cc(C(=O)N2Cc3ccccc3C2)c(O)c2c1CC=C2 [Compound 32a] , test system: Hsp90α (Homo sapiens, UniProt P07900).
Result block: < 4.00

Query block: Write down the reported pIC50 of CC(C)c1cc(C(=O)N2Cc3ccccc3C2)c(O)c2c1C(=O)C(C(F)(F)F)C2 (centres unmarked) , test system: Hsp90α (Homo sapiens, UniProt P07900).
Result block: < 4.00

Query block: Write down the reported pIC50 of CC(C)c1cc(C(=O)N2Cc3ccccc3C2)c(O)c2c1C(=O)C(F)C2 (centres unmarked) , test system: Hsp90α (Homo sapiens, UniProt P07900).
Result block: 5.62
